System: HBV in 2.2.15 cells
Test: 2.2.15 cells: viral product in cell lysates quantified via quantitative real time PCR
Format: cell-based, hepatitis B virus (HBV)
Conditions: Hepatitis B virus, 120 h, day 5 post treatment, 50% reduction of viral product vs no drug controls, readout (qPCR, HBsAg or HBeAg) not specified for the column
EXPERIMENTAL ENDPOINT: EC50

# COMPOUND, TARGET UNDER TEST, VALUE OBSERVED
records = [
    ("CC(C)[C@@H]1Cn2nc(-c3ccccc3)c(-c3ccccc3)c2-c2cc(=O)c(C(=O)O)cn21 [Example 179]", "HBV in 2.2.15 cells", "< 100 nM"),
    ("CC(C)[C@@H]1Cn2nc(-c3cccc(Cl)c3)c(-c3cccc(Cl)c3)c2-c2c(F)c(=O)c(C(=O)O)cn21 [Example 185]", "HBV in 2.2.15 cells", "200 to 1000 nM"),
    ("CC(C)(C)[C@@H]1Cn2nc(-c3ccc(F)cc3)c(-c3ccoc3)c2-c2cc(=O)c(C(=O)O)cn21 [Example 167]", "HBV in 2.2.15 cells", "< 100 nM"),
    ("CC(C)(C)[C@@H]1Cn2nc(-c3ccccc3C(F)F)cc2-c2cc(=O)c(C(=O)O)cn21 [Example 85]", "HBV in 2.2.15 cells", "200 to 1000 nM"),
    ("CC(C)(C)[C@@H]1Cn2nc(-c3cc(F)c(F)cc3O)cc2-c2cc(=O)c(C(=O)O)cn21 [Example 66]", "HBV in 2.2.15 cells", "< 100 nM"),
    ("CC(C)(C)[C@@H]1Cn2nc(-c3ccccc3OC(F)F)cc2-c2cc(=O)c(C(=O)O)cn21 [Example 68]", "HBV in 2.2.15 cells", "< 100 nM"),
    ("CC(C)(C)[C@@H]1Cn2nc(-c3cccc(OC(F)(F)F)c3)cc2-c2cc(=O)c(C(=O)O)cn21 [Example 17]", "HBV in 2.2.15 cells", "< 100 nM"),
    ("COc1cccc(C(N)=O)c1-c1cc2n(n1)C[C@@H](C(C)(C)C)n1cc(C(=O)O)c(=O)cc1-2 [Example 52]", "HBV in 2.2.15 cells", "200 to 1000 nM"),
]

---

Tested on: HBV in 2.2.15 cells
Experiment: 2.2.15 cells: viral product in cell lysates quantified via quantitative real time PCR
Type: cell-based, hepatitis B virus (HBV)
Details: Hepatitis B virus, 120 h, day 5 post treatment, 50% reduction of viral product vs no drug controls, readout (qPCR, HBsAg or HBeAg) not specified for the column
pEC50: −log10 of the molar value.
EXPERIMENTAL ENDPOINT: pEC50

# SMILES NOTATION, TARGET UNDER TEST, VALUE OBSERVED
rows = [
    ("CC(C)[C@@H]1Cn2nc(C3CC3)c(-c3cccc(O)c3)c2-c2cc(=O)c(C(=O)O)cn21", "HBV in 2.2.15 cells", "> 7.00"),
    ("CC(C)(C)[C@@H]1Cn2nc(-c3ccccc3O)cc2-c2cc(=O)c(C(=O)O)cn21", "HBV in 2.2.15 cells", "> 7.00"),
    ("CC(C)[C@@H]1Cn2nc(-c3cncc(F)c3)c(-c3cncc(F)c3)c2-c2cc(=O)c(C(=O)O)cn21", "HBV in 2.2.15 cells", "6.00 to 6.70"),
    ("CC(C)[C@@H]1Cn2nc(-c3ccnnc3)c(-c3ccnnc3)c2-c2c(F)c(=O)c(C(=O)O)cn21", "HBV in 2.2.15 cells", "6.00 to 6.70"),
    ("CC(C)(C)[C@@H]1Cn2cc(-c3ccc(F)cc3)nc2-c2cc(=O)c(C(=O)O)cn21", "HBV in 2.2.15 cells", "6.00 to 6.70"),
    ("COc1cccc(-c2cnn3c2-c2cc(=O)c(C(=O)O)cn2[C@H](C(C)(C)C)C3)c1", "HBV in 2.2.15 cells", "> 7.00"),
    ("CC(C)(C)[C@@H]1Cn2nc(-c3cccc4scnc34)cc2-c2cc(=O)c(C(=O)O)cn21", "HBV in 2.2.15 cells", "> 7.00"),
]
